Target: T1, rat APJ receptor (rat, UniProt Q9JHG3 1-377)
T1 sequence (looked up): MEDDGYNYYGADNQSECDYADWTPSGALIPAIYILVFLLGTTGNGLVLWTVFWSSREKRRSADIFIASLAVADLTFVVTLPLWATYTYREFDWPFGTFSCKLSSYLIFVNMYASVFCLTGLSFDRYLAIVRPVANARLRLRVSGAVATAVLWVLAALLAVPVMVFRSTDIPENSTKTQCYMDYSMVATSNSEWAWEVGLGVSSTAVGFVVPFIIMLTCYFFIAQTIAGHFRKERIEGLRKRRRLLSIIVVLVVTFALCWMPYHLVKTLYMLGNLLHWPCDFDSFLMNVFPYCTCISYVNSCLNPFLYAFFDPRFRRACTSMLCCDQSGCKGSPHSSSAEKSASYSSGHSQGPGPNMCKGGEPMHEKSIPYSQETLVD
Assay: cell-based or functional assay
Starred links: 1 amine or outer side, 2 acyl side, 3 side chain; linkers in the order of their positions; H or OH if unused. Non-standard residues stand in square brackets, D forms with d. Primed or numbered codes have the meaning given here. *: point of attachment. AC4Abu = α-carboxy-4-aminobutyric acid, O=C(C(CCN[*:1])C(=O)[*:3])[*:2]; Oic = O=C(O)[C@@H]1C[C@@H]2CCCC[C@@H]2N1; Phe(4-Cl) = N[C@@H](Cc1ccc(Cl)cc1)C(=O)O; γGlu = O=C(O)[C@H](CCC(=O)[*:2])N[*:1]; 2Nal = N[C@@H](Cc1ccc2ccccc2c1)C(=O)O; NMehArg = CN[C@@H](CCCCNC(=N)N)C(=O)O; NMeR = CN[C@@H](CCCNC(=N)N)C(=O)O; Tridecanoyl = CCCCCCCCCCCCC(=O)*; hArg = N=C(N)NCCCC[C@H](N)C(=O)O; Cha = N[C@@H](CC1CCCCC1)C(=O)O; αMeL = CC(C)C[C@](C)(N)C(=O)O; Tle = CC(C)(C)[C@H](N)C(=O)O; AC4Abu″ = not defined here; Nle = CCCC[C@H](N)C(=O)O; AEEA = NCCOCCOCC(=O)O; βAla = NCCC(=O)O
EC50 Rat APJ Receptor (GTPγS assay) under 20 nM gets class 1, anything at or over 20 nM gets class 0.

Confirm or reject: EC50 Rat APJ Receptor (GTPγS assay) of Tridecanoyl-[γGlu][AEEA][AEEA]QRP[NMeR]LSH[βAla]GP[Nle]P[Phe(4-Cl)]-OH (SMILES CCCCCCCCCCCCC(=O)N[C@@H](CCC(=O)NCCOCCOCC(=O)NCCOCCOCC(=O)N[C@@H](CCC(N)=O)C(=O)N[C@@H](CCCNC(=N)N)C(=O)N1CCC[C@H]1C(=O)N(C)[C@@H](CCCNC(=N)N)C(=O)N[C@@H](CC(C)C)C(=O)N[C@@H](CO)C(=O)N[C@@H](Cc1c[nH]cn1)C(=O)NCCC(=O)NCC(=O)N1CCC[C@H]1C(=O)N[C@@H](CCCC)C(=O)N1CCC[C@H]1C(=O)N[C@@H](Cc1ccc(Cl)cc1)C(=O)O)C(=O)O) [Apelin polypeptide SEQ ID NO: 424] lies strictly below 20 nM class 1

Confirm or reject: EC50 Rat APJ Receptor (GTPγS assay) of Tridecanoyl-[γGlu][AEEA][AEEA][dQ][hArg]P[dR][Cha]SHK[Tle][Oic][Nle]P[Phe(4-Cl)]-OH [Apelin polypeptide SEQ ID NO: 371] lies strictly below 20 nM class 1

Confirm or reject: EC50 Rat APJ Receptor (GTPγS assay) of Tridecanoyl-[AC4Abu][AEEA][AEEA]Q[NMeR][αMeL]SHKG[Oic][Nle]P[Phe(4-Cl)]-OH (SMILES CCCCCCCCCCCCC(=O)NCCC(C(=O)O)C(=O)NCCOCCOCC(=O)NCCOCCOCC(=O)N[C@@H](CCC(N)=O)C(=O)N(C)[C@@H](CCCNC(=N)N)C(=O)N[C@@](C)(CC(C)C)C(=O)N[C@@H](CO)C(=O)N[C@@H](Cc1c[nH]cn1)C(=O)N[C@@H](CCCCN)C(=O)NCC(=O)N1[C@H](C(=O)N[C@@H](CCCC)C(=O)N2CCC[C@H]2C(=O)N[C@@H](Cc2ccc(Cl)cc2)C(=O)O)C[C@@H]2CCCC[C@@H]21) [Apelin polypeptide SEQ ID NO: 397] lies strictly below 20 nM class 1

Confirm or reject: EC50 Rat APJ Receptor (GTPγS assay) of Tridecanoyl-[AC4Abu″][AEEA][AEEA]QRP[NMehArg]LSHKGP[Nle]P[2Nal]-OH (reading uncertain; also: printed as {TDA}[AC4Abu][Aeea][Aeea]QRP[NMehArg]LSHKGP[Nle]P[2Nal]{COOH}) [Apelin polypeptide SEQ ID NO: 471] lies strictly below 20 nM class 1

Confirm or reject: EC50 Rat APJ Receptor (GTPγS assay) of Tridecanoyl-[γGlu][AEEA][AEEA][dQ][hArg]P[dR][Cha]SHKG[Oic][Nle]P[D‑4IF]-OH [Apelin polypeptide SEQ ID NO: 369] lies strictly below 20 nM class 0

Values were extracted from patent US10941182.
